Measured growth inhibition values are reported for all entries that follow.
- measurement-description: NCI Yeast Anticancer Drug Screen. Data for the bub3 strain (AID 167)
- study-conditions: S. cerevisiae bub3 mutant strain, at 1.2 µM, hits give high values
About 79,000 compounds went through this panel and 15% of them were active in at least one assay; those are over-represented in the sample as a whole.

compound	growth inhibition [%]
O=C(NNc1ccccc1)C(O)C(O)C(O)C(O)C(O)CO (configuration not stated)	-3
CC12C(=O)OC(=O)C(c3ccccc31)c1ccccc12	-7
O=C(CC(C(=O)O)N1CCOCC1)c1ccccc1 (configuration not stated)	-16
CCOC(=N)c1ccc(O)c(OC)c1	7
CCOc1c(N=Nc2ccccc2OC)c(C)nn1C(=S)S	-7
O=[N+]([O-])c1cc[n+]([O-])cc1	-12
O=C(NNc1ccccc1)c1ccc(Cl)c(Cl)c1	-5
O=[N+]([O-])c1cc(Cl)cnc1Br	-8
O=C(O)c1cc2ccc(Cl)cc2c(O)c1C1=CCCCC1	14
CC1CC[C@]2(C(=O)O)CCC3(C)C(=CC(=O)C4[C@@]5(C)CCC(=O)C(C)(C)C5CC[C@]43C)[C@@H]2[C@H]1C (some centres not stated)	12
C=C(Cl)COC(=O)Nc1cccc(Cl)c1	-17
Cc1cc2c3ccccc3c3ccccc3c2nn1	-9
Cc1ccc(Cl)cc1NC(=O)OCCN(C)C(=O)Nc1cc(Cl)ccc1C	-39
COC(=O)C1=C(C(=O)OC)C(C(=O)OC)C(C(=O)OC)C(C(=O)OC)(C(=O)OC)C(C(=O)OC)=C1C(=O)OC (configuration not stated)	-13
O=C(CSC(=S)N1CCCCC1)Nc1nc2c(s1)CCCC2	5
C/C(=N\Nc1ccc([N+](=O)[O-])cc1[N+](=O)[O-])c1sc(-n2nc(-c3ccccc3)cc2-c2ccccc2)nc1C	15
COc1ccc(NC(=O)CC2SC(=Nc3ccccc3C)NC2=O)c([N+](=O)[O-])c1 (configuration not stated)	2
CN1C(=O)c2ccc3ccccc3c2C1=O	6
Cc1cc(NCCCCCCCCNc2cc(C)nc3cc(N)ccc23)c2ccc(N)cc2n1	-64
O=C(CC(=O)n1nc(-c2ccccc2)c(N=Nc2ccc(Cl)cc2)c1-c1ccccc1)Nc1cccc(Cl)c1	27
COc1cccc2c1C(=O)c1c(O)c3c(c(O)c1C2=O)C[C@@](O)(C(C)=O)C[C@@H]3OC1CC(OC(C)=O)C(OC(C)=O)C(C)O1 (some centres not stated)	-54
Cc1cc(N(CCOS(C)(=O)=O)CCOS(C)(=O)=O)ccc1C=Nc1ccc(-c2csc(-c3ccccc3)n2)c(Cl)c1	0

###

- measurement-description: NCI Yeast Anticancer Drug Screen. Data for the CLN2oe strain (AID 163);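 further: 0% = growth of vehicle-only control cultures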
- study-conditions: S. cerevisiae CLN2oe strain, at 1.2 µM, hits give high values
About 79,000 compounds went through this panel and 15% of them were active in at least one assay; those are over-represented in the sample as a whole.
attribute-measured: growth inhibition (%)

molecule	numeric-value
NC(=O)C(=O)NNc1ccccc1	-3
CS(=O)(=O)SCc1ccc([N+](=O)[O-])cc1	-2
O=[N+]([O-])c1cc(F)c(F)cc1Sc1cc(F)c(F)cc1[N+](=O)[O-]	-2
Nc1ccc(F)cc1S	-70
Cc1cc(N(CCOS(C)(=O)=O)CCOS(C)(=O)=O)ccc1C=Nc1ccc(-c2nc(Cc3ccccc3)sc2C)cc1	23
CCOC1Oc2ccccc2-c2nc(N)ncc21 (stereo not drawn)	7
CC(=O)OC1CC2C(C)(C)C(=O)C=C[C@]2(C)C2CCC3(C)C(=CCC3[C@H](CO)C[C@H](O)C(=O)C(C)(C)O)[C@]12C (stereo partly drawn)	-41
O=C(CC(=O)n1nc(-c2ccccc2)c(N=Nc2ccc(Cl)cc2)c1-c1ccccc1)Nc1cccc(Cl)c1	-8
O=C1C=C(Cl)C(=O)N1c1cccc(Cl)c1	-13
CSc1nc(C)c(CCOC(C)=O)c(N=P(c2ccccc2)(c2ccccc2)c2ccccc2)n1	18
Nc1ncc(-c2ccc(Br)cc2)s1	21
Cc1nc(-c2cc3cc([N+](=O)[O-])ccc3oc2=O)cs1	-22
OCc1ccccc1Cc1ccccc1	-7
O=C(O)CNC(=S)Nc1ccccc1	2
Cn1c(=O)c2c(nc(N)n2C2OC(CO)C(O)C2O)n(C)c1=O (stereo not drawn)	1
Cc1ccc(Sc2ccccc2N)cc1	22
Cc1ccc(Cl)cc1NC(=O)OCCN(C)C(=O)Nc1cc(Cl)ccc1C	-48
CC[N+]1(C)CCC(O)(c2ccc(OC)cc2)C(C(=O)c2ccc(OC)cc2)C1 (stereo not drawn)	-13
C=C1CCC(O)C/C1=C/C=C1\CCCC2(C)C1CCC2C(C)CCCC(C)C (stereo not drawn)	-11
CCOC(=O)C(C(=O)OCC)=P(c1ccccc1)(c1ccccc1)c1ccccc1	0
O=C(O)c1cc2ccccc2c2c1C(=O)c1ccccc1-2	13
CCc1nc2ccc(NCCN(C)C)c3c(=O)c4ccccc4n1c23	18
O=c1c2ccccc2nc(-c2ccccc2)n1O	1

###

- measurement-description: NCI Yeast Anticancer Drug Screen. Data for the cln2 rad14 strain (AID 165);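 further: 0% = growth equal to vehicle treated cultures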
- study-conditions: S. cerevisiae cln2 rad14 strain, at 50.0 µM
The panel holds about 79,000 compounds, 15% with a hit somewhere; the sample as a whole holds those more often. Active and inactive are the calls of the source. No stated cut-off is given here; in the data, active means growth inhibition above about 70%; inactive means the rest.
Possible outcomes: active, inactive

molecule	category-label
CCCCN(CCCC)CCC(O)c1cc2c(Cl)cc(Cl)cc2c2cc(C(F)(F)F)ccc12 (configuration not stated)	active
COC(C(O)CO)C(O)C(O)C(=O)NNc1ccccc1 (configuration not stated)	active
CC(=O)OC1CC2C(C)(C)C(=O)C=C[C@]2(C)C2CCC3(C)C(=CCC3[C@H](CO)C[C@H](O)C(=O)C(C)(C)O)[C@]12C (some centres not stated)	inactive
O=[N+]([O-])c1cccc2nc3ccccc3c(NCCCn3ccnc3[N+](=O)[O-])c12	active
CCCCCOC(=S)SC(=O)OCC	inactive
CC(C)(C)[Si](C)(C)OCC1CCC(n2cnc3c(NC(=O)c4ccccc4)ncnc32)O1 (configuration not stated)	inactive
Cc1cccc(C(C)(C)C)c1NC(=O)C(C#N)C1=C(Cl)C(=O)c2ccccc2C1=O (configuration not stated)	active
COC(=O)C1(C)CCc2c(ccc3ccccc23)C1=O (configuration not stated)	inactive
c1ccc(Cc2cc(-c3ccccc3)n[nH]2)cc1	active
COc1ccc(C(=O)Oc2ccccc2Br)cc1	inactive
Cc1c2cc[n+](Cc3ccc(I)cc3)cc2c(C)c2c1[nH]c1ccccc12	active
CCOC(=O)c1cc([N+](=O)[O-])c(Sc2ncnc3nc[nH]c23)c([N+](=O)[O-])c1	inactive
OC1(c2ccccc2)CCCc2ccc(Cl)cc21 (configuration not stated)	inactive
Nc1ccc2c(c1)C(=O)c1ccc(F)cc1-2	inactive
Cc1nc(Nc2ccccc2[N+](=O)[O-])sc1C(=O)CC(=O)C(=O)Nc1c(C(C)C)cccc1C(C)C	inactive
CNC(=O)OCc1c(COC(=O)NC)c(-c2ccc(Cl)cc2)n2c1CCC2	active
CCCCOC(=O)Nc1ccc(C)c(NC(=O)OCCCC)c1	active
CCC(C)OC(=O)Nc1ccc(C)c(NC(=O)OC(C)CC)c1 (configuration not stated)	active
CC(C)OC(=O)Nc1ccc2nc(-c3cscn3)[nH]c2c1	inactive
CCOC1(c2cccc([N+](=O)[O-])c2)c2ccccc2Oc2ccccc21	inactive
O=C1C(=O)c2ccccc2C(O)=C1C(C1=C(O)c2ccccc2C(=O)C1=O)c1ccc(Cl)cc1	inactive
O/N=C\c1c(O)ccc2ccccc12	inactive

###

# key: entry, value: growth inhibition
- measurement-description: NCI Yeast Anticancer Drug Screen. Data for the sgs1 strain (AID 173);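 further: 0% = growth of vehicle-only control cultures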
- study-conditions: S. cerevisiae sgs1 mutant, at 1.2 µM, hits give high values
About 79,000 compounds went through this panel and 15% of them were active in at least one assay; those are over-represented in the sample as a whole.
attribute-measured: growth inhibition (%)

compound	numeric-value
Nc1n[n+]([O-])c2ccc(Cl)cc2[n+]1[O-]	18
Nc1nc2ccc(NCc3ccc(C(=O)NC(CCC(=O)O)C(=O)O)cc3)cc2c(=O)[nH]1 (stereo unspecified)	-3
O=C(O)CNC(=S)Nc1ccccc1	-55
O=C(Nc1ccc(Cl)cc1)Nc1nnc2nc(C(C(=O)c3cccc([N+](=O)[O-])c3Cl)c3nc4nnc(NC(=O)Nc5ccc(Cl)cc5)n4[nH]c3=O)c(=O)[nH]n12	-1
CCOC(=O)/C(=C\c1ccc(C#N)cc1)C(C)=O	-18
CCc1c(Cl)c(C)cc(O)c1Cl	-4
C(=Nc1ccc(-c2cc(-c3ccccc3)nc3ccc4ccccc4c23)cc1)c1ccccc1	28
OCc1ccccc1Cc1ccccc1	0
CCOC(=O)C(Br)C(Br)c1ccccc1Cl (stereo unspecified)	10
COC1CCC(O)C(/C=C/[N+](=O)[O-])C1 (stereo unspecified)	13
CC1CC(C)(C)CC(OCCN2CCCCC2)(c2ccccc2)C1 (stereo unspecified)	3

###

- measurement-description: NCI Yeast Anticancer Drug Screen. Data for the rad52 strain (AID 147);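 further: 0% = growth of vehicle-treated control cultures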
- study-conditions: S. cerevisiae rad52 mutant growth inhibition; at 1.2 µM; hits give high values
The panel holds about 79,000 compounds, 15% with a hit somewhere; the sample as a whole holds those more often. Active and inactive are the calls of the source. No stated cut-off is given here; in the data, active means growth inhibition above about 70%; inactive means the rest.
Parameter growth inhibition: see the listing below.

compound	growth inhibition
COc1cc([C@@H]2c3cc4c(cc3[C@@H](Nc3ccc(NC(=O)c5cc([N+](=O)[O-])cn5C)cc3)[C@H]3COC(=O)[C@H]23)OCO4)cc(OC)c1O	25% (inactive)
O=C1C=C(N2CCN(c3ccccn3)CC2)C(=O)c2c(O)ccc(O)c21	3% (inactive)
Cc1ccc(NC(=O)/C(CC2N=c3c(ccc4c(O)c5ccccc5c(O)c34)=NC2O)=N/NC(C)(C)C)cc1 (stereo not given)	7% (inactive)
O=c1ccc2ccccc2c2ccccc12	-49% (inactive)
COC(C(O)CO)C(O)C(O)C(=O)NNc1ccccc1 (stereo not given)	12% (inactive)
